Field: EC50. Provide a value for each of the compounds that follow.
Tested on: S. mansoni schistosomula
ASSAY_NOTES: S. mansoni schistosomula high-throughput phenotype and motility screen (Roboworm), 72 h
Type: cell-based, Schistosoma mansoni
PROTOCOL_CONDITIONS: Schistosoma mansoni, Table 5, Series C; read-out: Anti-schistosomal activity EC50 Schistosomula (μM) Phenotype
Answer with a number only, understood to be in µM.

Ask | Please look at this compound and report its EC50: CC(=O)Nc1ccc2nc(Nc3ccc(Cl)c(Cl)c3)c(Nc3ccc(Cl)c(Cl)c3)nc2c1 [Compound 22c]
Reply | 3.04

Ask | Please look at this compound and report its EC50: O=[N+]([O-])c1ccc2nc(Nc3ccc(Cl)c(Cl)c3)c(Nc3ccc(Cl)c(Cl)c3)nc2c1
Reply | 0.47

Ask | Please look at this compound and report its EC50: CCCCCC(=O)Nc1ccc2nc(Nc3ccc(Cl)c(Cl)c3)c(Nc3ccc(Cl)c(Cl)c3)nc2c1 [Compound 22d]
Reply | 1.02

Ask | Please look at this compound and report its EC50: O=C(Nc1ccc2nc(Nc3ccc(Cl)c(Cl)c3)c(Nc3ccc(Cl)c(Cl)c3)nc2c1)c1ccco1 [Compound 22f]
Reply | 1.91
